System: HEK-293T
Assay: Multiplex assay against HEK293T
Type: toxicity, cell-based
Conditions: human, 48 h, 10 µM, compound concentration 10 uM, replicate 2
Measured Population Healthy Nuclei (%) by item

| compound | units_of_measure | Population Healthy Nuclei (%) |
| --- | --- | --- |
| CCCN1CCC[C@@H]2Cc3n[nH]cc3C[C@H]21.Cl [QUINPIROLE HYDROCHLORIDE] | % | 80 |
| Cc1ccc(C(C)(O)c2nc3ccccc3s2)c(C)c1 (stereo not drawn) | % | 80 |
| C[C@H](NC(=O)c1c(C(F)F)nn(C)c1Oc1cccc(C(F)(F)F)c1)c1ccc(C(=O)O)cc1 | % | 77 |
| CN(C)CCCc1cc(C(=O)Nc2ccc(-c3ccncc3)cc2)ccc1O.Cl.Cl | % | 76 |
| CC1(COc2ccc3c(c2)ncn3-c2ccc3cccc(N4CCC(N)CC4)c3n2)COC1 | % | 22 |
| N[C@@]1(C(=O)O)CO[C@H]2[C@H](C(=O)O)[C@H]21 | % | 80 |
| CCNC1(C(N)=O)CCN(c2ncnc3c2nc(-c2ccccc2Cl)n3-c2ccc(Cl)cc2)CC1 | % | 77 |
| CN1CCN2c3ncccc3Cc3ccccc3C2C1 (stereo not drawn) | % | 81 |
| O=C(NCC(=O)N1CC[C@H](N[C@H]2CC[C@@](O)(c3ccc(-c4ncccn4)cn3)CC2)C1)c1cccc(C(F)(F)F)c1 | % | 79 |
| Cc1ccccc1C(=O)Nc1ccc(C(=O)N2CCCC(N(C)C)c3ccccc32)cc1.Cl (stereo not drawn) | % | 77 |
| Cc1ccc(-c2ccc(F)cc2COc2ccc(CCC(=O)O)cc2)cc1 | % | 79 |
| Cc1nc2ccc(Oc3ccc(F)cc3)cc2c(=O)n1C[C@H]1CCCN(C(C)C)C1.Cl | % | 72 |
| CC(=O)NCCc1c(Cc2ccccc2)[nH]c2ccccc12 | % | 82 |
| COc1cc(NC(=O)CCN2CCC(OC(=O)Nc3ccccc3-c3ccccc3)CC2)c(Cl)cc1CNC[C@H](O)c1ccc(O)c2[nH]c(=O)ccc12 | % | 76 |
| O=S(=O)(c1ccccc1)c1cnc2c(N3CCNCC3)cccc2c1 [INTEPIRDINE] | % | 82 |
| Oc1c(CN2CCN(c3ccccn3)CC2)cc(Cl)c2cccnc12 | % | 49 |
| CNC[C@H](O)c1ccc(O)c(O)c1 [EPINEPHRINE] | % | 67 |
| c1cc(OCCCN2CCCCC2)ccc1CN1CCCCC1 | % | 75 |

---

System: Fibroblast
Test: Multiplex assay against human fibroblast
Assay type: toxicity, cell-based
Conditions: 12 h, 10 µM, compound concentration 10 uM, replicate 2
Measured Population Fragmented Nuclei (%) by item
measure: Population Fragmented Nuclei (%)

| molecule | study_system | measure | units_of_measure | data_value |
| --- | --- | --- | --- | --- |
| C[C@@H]1C[C@H]2[C@@H]3CCC4=CC(=O)C=C[C@]4(C)[C@@]3(F)[C@@H](O)C[C@]2(C)[C@@]1(O)C(=O)CO [DEXAMETHASONE] | Fibroblast | Population Fragmented Nuclei (%) | % | 24 |
| CCCn1c(=O)c2[nH]c(C3CCCC3)nc2n(CCC)c1=O | Fibroblast | Population Fragmented Nuclei (%) | % | 32 |
| O=C(NCC(=O)N1CC[C@H](N[C@H]2CC[C@@](O)(c3ccc(-c4ncccn4)cn3)CC2)C1)c1cccc(C(F)(F)F)c1 [PF-4136309] | Fibroblast | Population Fragmented Nuclei (%) | % | 24 |
| CCOc1c2c(c(OCC)c3ncccc13)CN(c1ccc(CS(=O)(=O)NC(=O)Cc3ccccc3OC)cc1C)C2=O | Fibroblast | Population Fragmented Nuclei (%) | % | 19 |
| Cl.Clc1ccc2nsnc2c1NC1=NCCN1 [TIZANIDINE HYDROCHLORIDE] | Fibroblast | Population Fragmented Nuclei (%) | % | 24 |
| CNC[C@H](O)c1ccc(O)c(O)c1 [EPINEPHRINE] | Fibroblast | Population Fragmented Nuclei (%) | % | 39 |
| C[C@H](NC(=O)c1c(C(F)F)nn(C)c1Oc1cccc(C(F)(F)F)c1)c1ccc(C(=O)O)cc1 [PALUPIPRANT] | Fibroblast | Population Fragmented Nuclei (%) | % | 42 |
| Cc1nc2ccc(Oc3ccc(F)cc3)cc2c(=O)n1C[C@H]1CCCN(C(C)C)C1.Cl | Fibroblast | Population Fragmented Nuclei (%) | % | 36 |
| CN(C)CCCc1cc(C(=O)Nc2ccc(-c3ccncc3)cc2)ccc1O.Cl.Cl | Fibroblast | Population Fragmented Nuclei (%) | % | 31 |
| CCNC1(C(N)=O)CCN(c2ncnc3c2nc(-c2ccccc2Cl)n3-c2ccc(Cl)cc2)CC1 [OTENABANT] | Fibroblast | Population Fragmented Nuclei (%) | % | 30 |
| O=S(=O)(c1ccccc1)c1cnc2c(N3CCNCC3)cccc2c1 [INTEPIRDINE] | Fibroblast | Population Fragmented Nuclei (%) | % | 43 |
| COc1cc(NC(=O)CCN2CCC(OC(=O)Nc3ccccc3-c3ccccc3)CC2)c(Cl)cc1CNC[C@H](O)c1ccc(O)c2[nH]c(=O)ccc12 [BATEFENTEROL] | Fibroblast | Population Fragmented Nuclei (%) | % | 44 |
| O=C(NCCO)c1cccc(-c2cc(Nc3ccc(OC(F)(F)F)cc3)ncn2)c1 | Fibroblast | Population Fragmented Nuclei (%) | % | 22 |
| CN(C)c1ccnc2sc3c(=O)n(N4CCCCCC4)cnc3c12 | Fibroblast | Population Fragmented Nuclei (%) | % | 31 |
| COc1c(C)cc(NC(=O)c2nn(Cc3ccc(F)cc3)c3c2CN(C(=O)c2ccc[nH]2)C[C@]3(C)C(N)=O)cc1C | Fibroblast | Population Fragmented Nuclei (%) | % | 29 |
| Oc1c(CN2CCN(c3ccccn3)CC2)cc(Cl)c2cccnc12 | Fibroblast | Population Fragmented Nuclei (%) | % | 25 |
| CC(=O)NCCc1c(Cc2ccccc2)[nH]c2ccccc12 [LUZINDOLE] | Fibroblast | Population Fragmented Nuclei (%) | % | 26 |
| c1cc(OCCCN2CCCCC2)ccc1CN1CCCCC1 [JNJ-5207852] | Fibroblast | Population Fragmented Nuclei (%) | % | 36 |
| N#Cc1c(N)nc(SCc2csc(-c3ccc(Cl)cc3)n2)c(C#N)c1-c1ccc(OCCO)cc1 [CAPADENOSON] | Fibroblast | Population Fragmented Nuclei (%) | % | 41 |
| CCCN1CCC[C@@H]2Cc3n[nH]cc3C[C@H]21.Cl [QUINPIROLE HYDROCHLORIDE] | Fibroblast | Population Fragmented Nuclei (%) | % | 23 |
| CC(C)(C)c1ccc(S(=O)(=O)Nc2ccc(Cl)cc2C(=O)c2cc[n+]([O-])cc2)cc1 [VERCIRNON] | Fibroblast | Population Fragmented Nuclei (%) | % | 30 |
| Cc1ccc(C(C)(O)c2nc3ccccc3s2)c(C)c1 (configuration not stated) | Fibroblast | Population Fragmented Nuclei (%) | % | 31 |
| COc1ccc2c(c1)C(C(=O)N(Cc1ccc(N(C)C)cc1)c1ccc(C(C)C)cc1)CCC2.Cl (configuration not stated) | Fibroblast | Population Fragmented Nuclei (%) | % | 38 |
| O=C1COc2nccc(-c3ccccc3F)c2CN1Cc1cc(C(F)(F)F)cc(C(F)(F)F)c1 | Fibroblast | Population Fragmented Nuclei (%) | % | 24 |
| CC[C@H]1OC(=O)[C@H](C)[C@@H](O[C@H]2C[C@@](C)(OC)[C@@H](O)[C@H](C)O2)[C@H](C)[C@@H](O[C@@H]2O[C@H](C)C[C@H](N(C)C)[C@H]2O)[C@@]2(C)CC(C)=C(O2)[C@H](C)[C@@H](O)[C@]1(C)O | Fibroblast | Population Fragmented Nuclei (%) | % | 41 |
| Cc1ccccc1C(=O)Nc1ccc(C(=O)N2CCCC(N(C)C)c3ccccc32)cc1.Cl (configuration not stated) | Fibroblast | Population Fragmented Nuclei (%) | % | 29 |
| Cc1ccc(/C(=C\CN2CCCC2)c2ccccn2)cc1 [TRIPROLIDINE] | Fibroblast | Population Fragmented Nuclei (%) | % | 26 |

---

System: HEK-293T
Experiment: Multiplex assay against HEK293T
Format: toxicity, cell-based
Settings: human, 24 h, 1 µM, compound concentration 1 uM, replicate 1
Label T for high-side Population Hoechst High Intensity Objects (%) (at or above 5%) and F for low-side Population Hoechst High Intensity Objects (%) (below it).

| compound | study_system | category_label |
| --- | --- | --- |
| COc1ccccc1N1CCN(CCCCNC(=O)c2ccc3ccccc3c2)CC1.Cl | HEK-293T | T |
| C[C@@H]1C[C@H]2[C@@H]3CCC4=CC(=O)C=C[C@]4(C)[C@@]3(F)[C@@H](O)C[C@]2(C)[C@@]1(O)C(=O)CO | HEK-293T | F |
| O=C(O)Cc1ccccc1Nc1c(Cl)cccc1Cl | HEK-293T | F |
| CC(=O)NCCc1c(Cc2ccccc2)[nH]c2ccccc12 | HEK-293T | T |
| CC(C)(C)c1ccc(S(=O)(=O)Nc2ccc(Cl)cc2C(=O)c2cc[n+]([O-])cc2)cc1 | HEK-293T | T |
| CSc1ccccc1N1CCN(CCCCCC(=O)NC2CCCc3ccccc32)CC1.Cl (configuration not stated) | HEK-293T | F |
| CCCN1CCC[C@@H]2Cc3n[nH]cc3C[C@H]21.Cl [QUINPIROLE HYDROCHLORIDE] | HEK-293T | F |
| CN1CCN(c2nc3cc(C(F)(F)F)ccc3n3cccc23)CC1.O=C(O)/C=C\C(=O)O.O=C(O)/C=C\C(=O)O | HEK-293T | T |
| N[C@@]1(C(=O)O)CO[C@H]2[C@H](C(=O)O)[C@H]21 | HEK-293T | F |
| CN1CCN2c3ncccc3Cc3ccccc3C2C1 (configuration not stated) | HEK-293T | F |
| CCCC(CCC)C(=O)O | HEK-293T | F |
| Cc1ccc(C(C)(O)c2nc3ccccc3s2)c(C)c1 (configuration not stated) | HEK-293T | F |
| CCCn1c(=O)c2[nH]c(C3CCCC3)nc2n(CCC)c1=O | HEK-293T | F |
| CC[C@H]1OC(=O)[C@H](C)[C@@H](O[C@H]2C[C@@](C)(OC)[C@@H](O)[C@H](C)O2)[C@H](C)[C@@H](O[C@@H]2O[C@H](C)C[C@H](N(C)C)[C@H]2O)[C@@]2(C)CC(C)=C(O2)[C@H](C)[C@@H](O)[C@]1(C)O | HEK-293T | F |
| Cc1ccc(-c2ccc(F)cc2COc2ccc(CCC(=O)O)cc2)cc1 | HEK-293T | F |
| Cc1nc2ccc(Oc3ccc(F)cc3)cc2c(=O)n1C[C@H]1CCCN(C(C)C)C1.Cl | HEK-293T | F |
| O=C1COc2nccc(-c3ccccc3F)c2CN1Cc1cc(C(F)(F)F)cc(C(F)(F)F)c1 | HEK-293T | F |
| CC1(COc2ccc3c(c2)ncn3-c2ccc3cccc(N4CCC(N)CC4)c3n2)COC1 | HEK-293T | F |
| O=C(NCCO)c1cccc(-c2cc(Nc3ccc(OC(F)(F)F)cc3)ncn2)c1 | HEK-293T | F |
| Cc1ccc(/C(=C\CN2CCCC2)c2ccccn2)cc1 | HEK-293T | F |
| COc1c(C)cc(NC(=O)c2nn(Cc3ccc(F)cc3)c3c2CN(C(=O)c2ccc[nH]2)C[C@]3(C)C(N)=O)cc1C | HEK-293T | F |
| Cl.Clc1ccc2nsnc2c1NC1=NCCN1 [TIZANIDINE HYDROCHLORIDE] | HEK-293T | F |
